Data provenance is patent US11214803B2.

System: Yap1 mRNA
TEST_NAME: Antisense inhibition of human Yap1 in A-431 cells by cEt gapmers, single dose (Example 3, RTS36584)
Format: cell-based
CONDITION_NOTES: Table 8; A-431 cells, 5,000 cells per well, free uptake, 2,000 nM, approximately 48 hours; RTS36584; normalized to RIBOGREEN; Yap1 mRNA relative to untreated control cells
Strand notation (5' to 3'): a small letter for the sugar, then the base; units joined by * are phosphorothioate-linked, units joined directly phosphodiester-linked; [ ] holds rarer units or linkages, { } end groups; capitals alone tell only the bases. k = constrained ethyl (cEt); [5mC] = 5-methylcytosine; d = 2'-deoxy (DNA)
Items are presented alongside their recorded YAP1 (% UTC).
Give the quantity in % UTC, number only.

The following substances have reported results that may help.
Exercise: What does the data say about its YAP1 (% UTC)? Entry: 958348 (k[5mC]*kG*kA*dG*dT*d[5mC]*d[5mC]*d[5mC]*d[5mC]*dG*d[5mC]*dG*dG*kA*k[5mC]*kG; antisense) [Compound 958348]
Key: 122

Exercise: What does the data say about its YAP1 (% UTC)? Entry: 958354 (antisense kG*kT*k[5mC]*dG*dG*dT*d[5mC]*dT*d[5mC]*d[5mC]*dG*dA*dG*kT*k[5mC]*k[5mC]) [Compound 958354]
Key: 31

Exercise: What does the data say about its YAP1 (% UTC)? Entry: 958352 (k[5mC]*kG*kG*dT*d[5mC]*dT*d[5mC]*d[5mC]*dG*dA*dG*dT*d[5mC]*k[5mC]*k[5mC]*k[5mC]; antisense) [Compound 958352]
Key: 110

Exercise: What does the data say about its YAP1 (% UTC)? Entry: 958361 (antisense kG*k[5mC]*kT*d[5mC]*dG*dA*dA*d[5mC]*dA*dT*dG*d[5mC]*dT*kG*kT*kG) [Compound 958361]
Key: 8

Exercise: What does the data say about its YAP1 (% UTC)? Entry: 958411 (antisense k[5mC]*kT*kT*dT*dA*d[5mC]*d[5mC]*dA*dA*dA*dA*d[5mC]*dG*kA*kG*kG) [Compound 958411]
Key: 90

Kindly review the next substance as well.
Exercise: What does the data say about its YAP1 (% UTC)? Entry: 958402 (antisense k[5mC]*kT*k[5mC]*dT*dT*dA*d[5mC]*dA*d[5mC]*dA*dG*d[5mC]*d[5mC]*kT*kA*kG) [Compound 958402]
Key: 28

###

Items are presented alongside their recorded IC50.
System: Yap1 mRNA
TEST_NAME: Dose-dependent inhibition of human Yap1 in A-431 cells (Example 7, 10,000 cells per well, RTS36584)
Type: cell-based
CONDITION_NOTES: Table 58, A-431 cells 10,000 cells per well, free uptake
Strand notation (5' to 3'): a small letter for the sugar, then the base; units joined by * are phosphorothioate-linked, units joined directly phosphodiester-linked; [ ] holds rarer units or linkages, { } end groups; capitals alone tell only the bases. k = constrained ethyl (cEt); [5mC] = 5-methylcytosine; d = 2'-deoxy (DNA)
Give the quantity in nM, number only.

The following substances have reported results that may help.
Exercise: What does the data say about its IC50? Entry: 958752 (kG*kA*kA*dT*dT*dT*dT*dT*dA*dG*dT*d[5mC]*d[5mC]*kA*kG*kT; antisense) [compound 958752]
Key: 100

Exercise: What does the data say about its IC50? Entry: 958527 (kG*kT*kA*dA*dG*dT*dA*dA*dG*dA*dA*d[5mC]*dA*kA*kT*k[5mC]; antisense) [compound 958527]
Key: 100

Exercise: What does the data say about its IC50? Entry: 958567 (kT*k[5mC]*kA*dA*d[5mC]*d[5mC]*dT*dA*dT*dG*dA*dA*d[5mC]*kT*kA*kT; antisense) [compound 958567]
Key: 200

Continuing:
Exercise: What does the data say about its IC50? Entry: 958742 (kA*kG*k[5mC]*dA*dA*dT*dA*dT*dG*dG*dT*dA*dT*kT*kA*kG; antisense) [compound 958742]
Key: 200

Exercise: What does the data say about its IC50? Entry: 958457 (antisense kG*kT*k[5mC]*dG*dA*dA*dG*dA*dT*dG*d[5mC]*dT*dG*kA*kG*k[5mC]) [compound 958457]
Key: 100

Exercise: What does the data say about its IC50? Entry: 958757 (kG*kT*kG*dA*dT*d[5mC]*dT*dG*d[5mC]*dA*d[5mC]*dA*dT*kT*kG*kT; antisense) [compound 958757]
Key: 300

###

Tested on: Yap1 mRNA
TEST_NAME: Antisense inhibition of human Yap1 in A-431 cells by cEt gapmers, single dose (Example 4, RTS4814)
Assay type: cell-based
CONDITION_NOTES: Table 17; A-431 cells, 5,000 cells per well, free uptake, 2,000 nM, approximately 48 hours; RTS4814; normalized to RIBOGREEN; Yap1 mRNA relative to untreated control cells
Strand notation (5' to 3'): a small letter for the sugar, then the base; units joined by * are phosphorothioate-linked, units joined directly phosphodiester-linked; [ ] holds rarer units or linkages, { } end groups; capitals alone tell only the bases. k = constrained ethyl (cEt); [5mC] = 5-methylcytosine; d = 2'-deoxy (DNA)
Threshold rule: YAP1 (% UTC) greater than or equal to 20 % UTC is Satisfied; below that, Not satisfied.

Exercise: Please check the record 1076483 (antisense kA*k[5mC]*kG*dG*dG*dA*dA*dA*dT*d[5mC]*dA*dT*dA*kT*kA*kG) [Compound 1076483] and state if its YAP1 (% UTC) is at or above 20 % UTC.
Key: Not satisfied

Continuing:
Exercise: Please check the record 1075363 (kA*k[5mC]*kA*d[5mC]*dA*dA*dT*dA*dT*d[5mC]*dA*dA*dG*kT*k[5mC]*k[5mC]; antisense) [Compound 1075363] and state if its YAP1 (% UTC) is at or above 20 % UTC.
Key: Satisfied

Exercise: Please check the record 1075459 (antisense kA*kA*k[5mC]*d[5mC]*dA*dA*dG*dG*dA*dT*dA*dG*dT*k[5mC]*kA*kT) [Compound 1075459] and state if its YAP1 (% UTC) is at or above 20 % UTC.
Key: Satisfied

Exercise: Please check the record 1075139 (antisense k[5mC]*k[5mC]*k[5mC]*dA*dA*dA*dT*dA*dA*dT*dA*dG*dA*kT*kA*k[5mC]) [Compound 1075139] and state if its YAP1 (% UTC) is at or above 20 % UTC.
Key: Satisfied

Exercise: Please check the record 1076355 (k[5mC]*kT*kA*d[5mC]*dA*dA*dA*dA*dG*dA*dG*d[5mC]*dT*kA*kT*kG; antisense) [Compound 1076355] and state if its YAP1 (% UTC) is at or above 20 % UTC.
Key: Satisfied

###

TEST_NAME: Tolerability in Sprague-Dawley rats, plasma chemistry markers (Example 21)
Assay type: in vivo
CONDITION_NOTES: male Sprague-Dawley rats, 50 mg/kg s.c. weekly for 6 weeks (7 doses), 48 hours after last dose
Strand notation (5' to 3'): a small letter for the sugar, then the base; units joined by * are phosphorothioate-linked, units joined directly phosphodiester-linked; [ ] holds rarer units or linkages, { } end groups; capitals alone tell only the bases. e = 2'-O-(2-methoxyethyl) (MOE); k = constrained ethyl (cEt); [5mC] = 5-methylcytosine; d = 2'-deoxy (DNA); m = 2'-O-methyl
ENDPOINT_LABEL: log10 of TBIL (log10 of the value in mg/dL)
The figures below represent log10 of TBIL, where TBIL is stated in mg/dL.

The following substances have reported results that may help.
Exercise: What does the data say about its log10 of TBIL? Entry: 1198874 (kA*kA*dG*dT*dG*dT*dA*dT*dG*dT*d[5mC]*kA*eG*kA*eA*kG) [compound 1198874]
Key: -0.80

Exercise: What does the data say about its log10 of TBIL? Entry: 1200857 (kA*kG*kT*dG*dT*mA*dT*dG*dT*d[5mC]*dA*dG*dA*kA*kG*kA; antisense) [compound 1200857]
Key: 0.69

Exercise: What does the data say about its log10 of TBIL? Entry: 1198612 (kA*kA*kG*dT*dG*dT*dA*dT*dG*dT*d[5mC]*dA*kG*kA*kA*eG) [compound 1198612]
Key: -0.92

Exercise: What does the data say about its log10 of TBIL? Entry: 1198312 (kG*k[5mC]*kA*d[5mC]*dT*dT*dT*dT*dA*d[5mC]*dA*dT*kT*eA*kG*eG) [compound 1198312]
Key: -0.85

Kindly review the next substance as well.
Exercise: What does the data say about its log10 of TBIL? Entry: 1198615 (kT*kT*kA*dA*dA*dG*dT*dG*dT*dA*dT*dG*kT*k[5mC]*kA*eG) [compound 1198615]
Key: -0.89
